Field: Log 1/Ki. Provide a value for each of the molecules that follow.
# measured target: DNA polymerase III (Bacillus subtilis)
# assay remarks: Inhibition constant against Bacillus subtilis azp-12 DNA polymerase III (mutant enzyme).

Lab note: measured Log 1/Ki of Oc1cc(Nc2cccc(Br)c2)nc(O)n1 was 4.66

Documented Log 1/Ki of CC(=O)Nc1ccc(Nc2cc(O)nc(O)n2)cc1C : 2.81

Lab note: measured Log 1/Ki of COc1ccc(Nc2cc(O)nc(O)n2)cc1 was 3.921

Noted for CCCc1ccc(Nc2cc(O)nc(O)n2)cc1 : its Log 1/Ki reads 4.278

Documented Log 1/Ki of Cc1ccc(Nc2cc(O)nc(O)n2)cc1I : 6.553

Memo: Cc1cc(Nc2cc(O)nc(O)n2)ccc1N , reported Log 1/Ki: 3.801

The molecule identified as CCCc1ccc(Nc2cc(O)nc(O)n2)cc1C registered its Log 1/Ki at 4.86

Please fill in: Log 1/Ki reported for CC(=O)Nc1cc(Nc2cc(O)nc(O)n2)ccc1C = 2.726

Record Nc1ccc(Nc2cc(O)nc(O)n2)cc1 . Reported Log 1/Ki: 2.409

Log 1/Ki in this record for Cc1ccc(Nc2cc(O)nc(O)n2)cc1C : 5.456

For Oc1cc(Nc2cccc(Cl)c2)nc(O)n1 the molecule record lists Log 1/Ki as 4.38

For OCc1cccc(Nc2cc(O)nc(O)n2)c1 the molecule record lists Log 1/Ki as 2.29

// field: Log 1/Ki; key: CCCCc1ccc(Nc2cc(O)nc(O)n2)cc1C ; value = 3.879

Record summary for Cc1cccc(Nc2cc(O)nc(O)n2)c1 : reported Log 1/Ki = 3.75

###

# measured target: DNA polymerase III PolC-type (Bacillus subtilis (strain 168))
# Sequence (P13267 whole entry): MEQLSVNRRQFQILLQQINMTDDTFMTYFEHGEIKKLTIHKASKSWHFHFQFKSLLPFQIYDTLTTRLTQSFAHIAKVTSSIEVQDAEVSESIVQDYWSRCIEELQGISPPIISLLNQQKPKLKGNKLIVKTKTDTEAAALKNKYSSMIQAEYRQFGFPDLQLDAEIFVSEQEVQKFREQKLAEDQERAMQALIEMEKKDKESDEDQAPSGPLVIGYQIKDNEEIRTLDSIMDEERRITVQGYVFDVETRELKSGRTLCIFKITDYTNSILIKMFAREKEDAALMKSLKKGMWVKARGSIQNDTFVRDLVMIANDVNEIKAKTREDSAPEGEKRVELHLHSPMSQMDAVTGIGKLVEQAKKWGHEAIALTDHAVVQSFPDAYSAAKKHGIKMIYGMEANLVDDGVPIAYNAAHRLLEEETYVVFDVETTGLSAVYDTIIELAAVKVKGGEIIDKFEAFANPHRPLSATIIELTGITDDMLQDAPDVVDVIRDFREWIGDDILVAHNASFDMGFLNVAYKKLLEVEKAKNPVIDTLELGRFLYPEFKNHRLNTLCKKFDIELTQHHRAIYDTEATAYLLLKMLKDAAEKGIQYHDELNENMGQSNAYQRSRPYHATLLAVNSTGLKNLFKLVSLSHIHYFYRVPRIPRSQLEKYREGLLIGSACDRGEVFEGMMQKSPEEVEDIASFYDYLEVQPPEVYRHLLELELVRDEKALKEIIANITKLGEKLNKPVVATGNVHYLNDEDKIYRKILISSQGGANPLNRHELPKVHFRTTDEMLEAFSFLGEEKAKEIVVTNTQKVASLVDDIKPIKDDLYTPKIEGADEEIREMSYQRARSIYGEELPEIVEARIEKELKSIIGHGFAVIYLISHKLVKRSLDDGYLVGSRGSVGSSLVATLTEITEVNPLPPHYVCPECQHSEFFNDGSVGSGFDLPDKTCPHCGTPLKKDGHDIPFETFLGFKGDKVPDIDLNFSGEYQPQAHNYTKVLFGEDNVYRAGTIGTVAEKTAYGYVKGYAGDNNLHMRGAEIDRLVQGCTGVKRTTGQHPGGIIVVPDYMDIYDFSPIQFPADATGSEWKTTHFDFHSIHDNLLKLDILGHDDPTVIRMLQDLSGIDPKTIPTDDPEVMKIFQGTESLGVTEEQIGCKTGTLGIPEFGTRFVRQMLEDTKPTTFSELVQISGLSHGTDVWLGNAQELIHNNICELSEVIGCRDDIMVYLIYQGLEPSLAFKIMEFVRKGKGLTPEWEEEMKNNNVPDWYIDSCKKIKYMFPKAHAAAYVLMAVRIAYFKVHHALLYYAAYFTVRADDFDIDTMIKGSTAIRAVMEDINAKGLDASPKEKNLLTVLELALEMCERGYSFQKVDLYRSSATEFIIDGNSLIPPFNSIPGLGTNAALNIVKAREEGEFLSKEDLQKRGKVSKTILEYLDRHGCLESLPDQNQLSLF
# assay remarks: Inhibition constant against Bacillus subtilis DNA polymerase III (wild type).
# reported conditions: read-out: Log 1/Ki (converted)
readout type: log10 Ki (log10 of the value in µM)
Please keep in mind that the values are log10 of Ki expressed in µM.

log10 Ki reading for CCc1cc(Nc2cc(=O)[nH]c(=O)[nH]2)ccc1C : -0.72

molecule CCCCc1ccc(Nc2cc(O)nc(O)n2)cc1C , log10 Ki observed: 2.84

Recorded result, CCCc1ccc(Nc2cc(O)nc(O)n2)cc1C , log10 Ki: 1.99

Record summary for CCc1ccc(Nc2cc(=O)[nH]c(=O)[nH]2)cc1C : reported log10 Ki = 1.28

So for CCCc1cccc(Nc2cc(O)nc(O)n2)c1 , the logged log10 Ki turned out to be 1.23

The molecule listed as CCCCc1cccc(Nc2cc(O)nc(O)n2)c1 has a reported log10 Ki of 2.84
